Recorded values, source PubChem BioAssay (NCI).

Please provide measured growth inhibition for the entries that follow.
assay: NCI Yeast Anticancer Drug Screen. Data for the mec2-1 strain (AID 157); conditions: S. cerevisiae mec2-1 strain, at 50.0 µM, stronger effect = higher value
This is part of a sample that, as a whole, favours compounds with a hit. Of some 79,000 tested, about 15% had one in any assay. Activity calls are given as the source filed them. Rule as the data show it: active = growth inhibition above about 70%; inactive = the rest.

Query C/C=C(\CC)C1(C)C(=O)NC(=O)NC1=O yields growth inhibition of 7.8% (inactive)

Item: O=C1CC2CCCC(C1)N2Cc1ccccc1 | growth inhibition: -6.1% (inactive)

The molecule listed as CC1c2c(n(C)c3ccccc23)C2CCC3(CO3)C1N2Cc1ccccc1 (configuration not stated) has a reported growth inhibition of 92% (active)

Lookup result for C1CN2CN3CCN(CN1C3)C2 ; measured growth inhibition: 12.2% (inactive)

growth inhibition reading for O=C(/C=C/c1ccccc1)Nc1ccc(Cl)cc1C(=O)c1ccccc1 : 14.8% (inactive)

# growth inhibition of O=c1cc(O)c1=O = 18% (inactive)

Measured growth inhibition of CC(=O)c1ccc(-c2ccccc2)cc1 : 2.6% (inactive)

Form field growth inhibition, entry CC(C)[N+](C)(CCC(C(=O)N(C)C)(c1ccccc1)c1ccccc1)C(C)C : -1.55% (inactive)

Cc1cccc(N2C(=O)C3C(C2=O)C2(Cl)C(Cl)=C(Cl)C3(Cl)C2(Cl)Cl)c1C (configuration not stated) yielded growth inhibition of 48.6% (inactive)

The reported value for CC(=O)C1(c2ccccc2)CCNCC1 in terms of growth inhibition is -13.1% (inactive)

# growth inhibition (molecule: Cc1nnc2cc3ccccc3cn12 ) is 9.45% (inactive)

Sample CCOP(=O)(OCC)Oc1cc(C)c(Cl)c(C)c1 ; growth inhibition observed: -16.7% (inactive)

Value of growth inhibition reported for the molecule CC[n+]1c(-c2ccccc2)c2cc(N)ccc2c2ccc(N)cc21 (tested in a mixture with another compound) is 88.8% (active)

Given item C#CC[As+](c1ccccc1)(c1ccccc1)c1ccccc1 , the value recorded as its growth inhibition is 91.8% (active)

Value of measured growth inhibition for the entry Nc1cc2[nH]cnc2c([Se])n1 : 62.9% (inactive)

Field growth inhibition (entry COc1ccc2c(c1)C(=O)C(N)C2 (configuration not stated) ) reads 1.95% (inactive)

Briefly, growth inhibition measured for COP(=O)(OC)/C(C#N)=C/c1ccco1 : -29.1% (inactive)

Kindly note the recorded growth inhibition for O=C(O)CCCNSc1ccccc1[N+](=O)[O-] , which is 44.5% (inactive)

Item: CCOP(=O)(N=S=O)OCC | growth inhibition: -13.5% (inactive)

Entry N#CC1CCCCC1 , growth inhibition reported as -5.4% (inactive)

Short answer for [Mg]=[Se] : growth inhibition was 3.15% (inactive)

Entry CCN(CCCl)c1ccc(NC(=O)c2cc(C(=O)NCCN(C)C)cc(C(=O)Nc3ccc(N(CC)CCCl)cc3)c2)cc1 ; growth inhibition = -23.9% (inactive)

Reported growth inhibition ( CNC(=O)O/N=C/c1cccc(/C=N/OC(=O)NC)c1 ) = 14.3% (inactive)

Record O=S(=O)(F)c1ccc(Cl)cc1 . Reported growth inhibition: 20.9% (inactive)

CNN yielded growth inhibition of -4.8% (inactive)

Note to self: growth inhibition recorded for NC(CCl)=NC1CN2CCC1CC2 (configuration not stated) was -20.4% (inactive)

The value of growth inhibition measured for the molecule CCOP(=O)(OCC)/C(C#N)=C/c1ccccc1OC turned out to be -1.3% (inactive)

Lookup result for CCC1(Sc2ncnc3c2ncn3C2OC(CO)C(O)C2O)C(=O)NC(=O)NC1=O (configuration not stated) ; measured growth inhibition: 2.7% (inactive)

Just so you know, measured growth inhibition for CC1CN1P1(N2CC2C)=NP(N2CC2C)(N2CC2C)=NP(N2CC2C)(N2CC2C)=N1 (configuration not stated) came out at 1.3% (inactive)

GET /value?item= NCCN1CC2CCC(CC2)C1 &field=growth inhibition returns -48.3% (inactive)

Summary for this molecule, CC(C)OC(N)=O : growth inhibition is -24.9% (inactive)

Measured growth inhibition of CNC(=O)Oc1ccc(C=Nc2cccc([N+](=O)[O-])c2)cc1 : 37.4% (inactive)

Entry NC(=O)C(CCN1CCCCC1)(c1ccccc1)c1ccccc1 ; growth inhibition = -14.9% (inactive)

// recorded growth inhibition for COC(=O)C1c2c(C)cc3n2C(C=CC3)C1C(=O)OC (configuration not stated) : 19.1% (inactive)

Summary for this molecule, NC(=O)NNC(=O)C(Cl)(Cl)Cl : growth inhibition is -8.55% (inactive)

According to the records, this molecule NC(=O)C(F)(F)Cl displays growth inhibition of 7.1% (inactive)

The molecule identified as CC(C)c1ccc(C(C)C)c(C(=O)CN2CCOCC2)c1 registered its growth inhibition at 34.8% (inactive)

Notebook: CCOP(=O)(CCBr)Oc1ccc([N+](=O)[O-])cc1 (configuration not stated) , growth inhibition read as 11.8% (inactive)

Kindly note the recorded growth inhibition for NC(=O)Cc1nn[nH]n1 , which is -13.8% (inactive)

growth inhibition measured on CCOC(=O)C1C(=O)CN2CCc3c([nH]c4ccccc34)C12C(=O)OCC (configuration not stated) = 15.3% (inactive)

Input COc1ccc(C(=O)C(CC2C(=O)NC(=O)NC2=O)c2ccc(OC)cc2)cc1 (configuration not stated) . Output growth inhibition: -8.65% (inactive)

Recorded result, COc1ccc(-c2c[se]c(=S)s2)cc1 , growth inhibition: 10.8% (inactive)

The measured growth inhibition associated with COc1cc[c]([Pb]([c]2ccc(Cl)cc2)([c]2ccc(Cl)cc2)[c]2ccc(OC)cc2)cc1 reads -8.95% (inactive)

For this molecule ( O=C(O)C(CSC(c1ccccc1)c1ccccc1)N1C(=O)c2ccccc2C1=O (configuration not stated) ), measured growth inhibition is 36.4% (inactive)

The molecule identified as CCCCOC(=O)C(O)CF (configuration not stated) registered its growth inhibition at -10.1% (inactive)

Record summary for Cc1ccc(NC(=O)CBr)cc1 : reported growth inhibition = 99.2% (active)

The molecule identified as O=C1/C(=C\c2cc3ccccc3c3ccccc23)N2CCC1CC2 registered its growth inhibition at -10.2% (inactive)

Entry under test: COC(=O)c1ccc([As]=O)cc1N (configuration not stated) . Its growth inhibition was 99.5% (active)

For reference, reported growth inhibition for O=C(Cc1cccc([N+](=O)[O-])c1)Nc1cccc(S(=O)(=O)F)c1 stands at -19.6% (inactive)

Consider CC(=O)N[C@@H](C[S-])C(=O)O.O=[N+]([O-])O.[Ag+] . Its measured growth inhibition is 0.95% (inactive)

Lab note: measured growth inhibition of CN(C)c1c2c(=O)n(C)c(=O)n(C)c2nc2cccc[n+]12 was 22.9% (inactive)

The molecule listed as Cc1cccc(N)c1 shows growth inhibition equal to -6.75% (inactive)
